System: T47D
Experiment: NCI tumour cell line growth inhibition, 48 h
Calls of active or inactive are those of the source. Cut-off read from the data, not from the text of the source: active = GI50 up to about 1.1 µM and inactive = higher.
Your reply should match one of these outcome classes. YES = active, NO = inactive

Query string: Returns: the outcome recorded for O=C(O)C(Cc1ccccc1)Cc1ccccc1 in this assay.
Result string: NO

Query string: Please let me know the test result on file for O=C1/C(=C/c2cccs2)N=C(c2ccccc2)N1C1Nc2cc3c(cc2S1)NC(N1C(=O)/C(=C/c2cccs2)N=C1c1ccccc1)S3 (stereo not given) .
Result string: NO

Query string: Assay result, entry Nc1nc(Cl)c(N)c(NCC2(CO)CCC(OCc3ccccc3)C2)n1 (stereo not given) — outcome?
Result string: YES

Query string: I'd appreciate the recorded outcome for C=CC(=O)N1C/C(=C\c2ccc([N+](=O)[O-])cc2)C(=O)/C(=C/c2ccc([N+](=O)[O-])cc2)C1 from this test.
Result string: YES

Query string: I would be grateful if you could indicate the recorded call for COc1cc(CNNC(N)=S)cc(OC)c1OC .
Result string: NO
